Origin of the recorded values: the kinase profiling compilation of Christmann-Franck et al. (2016)

target: HCK (human) (UniProt P08631); assay: Caliper, Mobility shift assay off-chip; conditions: compound 0.2 µM
Sequence (P08631 whole entry, looked up): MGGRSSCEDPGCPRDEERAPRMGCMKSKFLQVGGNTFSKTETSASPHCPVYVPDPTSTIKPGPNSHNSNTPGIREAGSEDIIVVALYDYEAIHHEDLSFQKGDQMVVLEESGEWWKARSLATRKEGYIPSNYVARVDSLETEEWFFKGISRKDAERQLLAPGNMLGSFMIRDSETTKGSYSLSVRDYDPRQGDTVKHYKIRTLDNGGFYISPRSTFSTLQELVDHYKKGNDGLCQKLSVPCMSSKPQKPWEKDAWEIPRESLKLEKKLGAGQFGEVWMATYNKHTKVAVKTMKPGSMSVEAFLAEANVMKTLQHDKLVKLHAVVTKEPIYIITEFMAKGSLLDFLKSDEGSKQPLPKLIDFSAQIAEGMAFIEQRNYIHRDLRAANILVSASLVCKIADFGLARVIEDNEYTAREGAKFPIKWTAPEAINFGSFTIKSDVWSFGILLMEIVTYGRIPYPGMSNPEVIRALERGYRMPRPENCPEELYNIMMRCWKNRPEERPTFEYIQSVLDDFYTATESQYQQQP
The reader will find reported inhibition values listed item by item below.
Write the value in % as a bare number.

Please review the entries below; each comes with its answer.
Problem: # query: inhibition of entry CCN(CC)CCNC(=O)c1c(C)[nH]c(/C=C2\C(=O)Nc3ccc(F)cc32)c1C
Result: 38

Problem: Fill in: inhibition of Cc1ccc(Nc2nccc(N(C)c3ccc4c(C)n(C)nc4c3)n2)cc1S(N)(=O)=O is ___
Result: 25.1

Problem: Entry under review: COc1cc2c(Oc3ccc4[nH]c(C)cc4c3F)ncnc2cc1OCCCN1CCCC1 . Reported inhibition?
Result: 21.1

Turning now to a further molecule:
Problem: I'd like to know its inhibition. The molecule in question is CNC(=O)c1cc(Oc2ccc(NC(=O)Nc3ccc(Cl)c(C(F)(F)F)c3)cc2)ccn1
Result: 5.2

---

target: ABL2 (human) (UniProt P42684); assay: Caliper, Mobility shift assay off-chip; conditions: compound 0.02 µM
Sequence (P42684 whole entry, looked up): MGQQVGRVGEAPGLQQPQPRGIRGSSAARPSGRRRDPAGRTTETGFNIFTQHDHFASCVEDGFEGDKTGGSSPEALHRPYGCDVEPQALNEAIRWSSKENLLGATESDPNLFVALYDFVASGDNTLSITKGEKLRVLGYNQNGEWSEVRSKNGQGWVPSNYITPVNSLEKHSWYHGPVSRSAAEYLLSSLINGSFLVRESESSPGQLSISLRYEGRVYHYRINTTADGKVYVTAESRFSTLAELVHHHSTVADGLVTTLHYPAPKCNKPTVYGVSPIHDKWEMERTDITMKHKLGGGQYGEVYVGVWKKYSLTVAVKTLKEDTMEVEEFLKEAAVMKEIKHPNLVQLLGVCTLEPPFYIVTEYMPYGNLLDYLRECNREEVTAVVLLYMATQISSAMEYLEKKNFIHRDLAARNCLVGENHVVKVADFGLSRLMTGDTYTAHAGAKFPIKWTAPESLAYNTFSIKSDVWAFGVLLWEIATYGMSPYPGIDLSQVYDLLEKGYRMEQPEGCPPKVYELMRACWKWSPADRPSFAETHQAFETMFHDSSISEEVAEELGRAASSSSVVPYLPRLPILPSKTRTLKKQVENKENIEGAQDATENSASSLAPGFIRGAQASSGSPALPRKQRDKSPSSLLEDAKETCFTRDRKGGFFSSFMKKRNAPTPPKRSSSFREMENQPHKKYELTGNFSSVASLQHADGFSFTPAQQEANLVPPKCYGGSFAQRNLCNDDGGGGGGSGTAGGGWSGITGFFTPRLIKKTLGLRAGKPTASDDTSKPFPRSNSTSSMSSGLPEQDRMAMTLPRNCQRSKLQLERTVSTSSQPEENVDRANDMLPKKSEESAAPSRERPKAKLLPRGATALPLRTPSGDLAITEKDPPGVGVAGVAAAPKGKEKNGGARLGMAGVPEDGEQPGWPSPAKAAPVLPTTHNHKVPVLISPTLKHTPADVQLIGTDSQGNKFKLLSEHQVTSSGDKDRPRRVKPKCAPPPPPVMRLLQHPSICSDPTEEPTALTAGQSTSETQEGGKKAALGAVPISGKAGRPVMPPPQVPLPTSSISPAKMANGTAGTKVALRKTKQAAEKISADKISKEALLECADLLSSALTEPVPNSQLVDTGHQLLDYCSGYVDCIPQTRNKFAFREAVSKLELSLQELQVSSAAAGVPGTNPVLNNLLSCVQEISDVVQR
Test readout: inhibition (%)
Expressed in %, but write only the number.

These solved cases illustrate the format of a correct answer.
Problem: Request the reported inhibition associated with Cc1ccc(Nc2nccc(N(C)c3ccc4c(C)n(C)nc4c3)n2)cc1S(N)(=O)=O
Result: 2.6

Problem: Look up inhibition for this molecule: CNC(=O)c1cc(Oc2ccc(NC(=O)Nc3ccc(Cl)c(C(F)(F)F)c3)cc2)ccn1
Result: -2.8

Problem: I would be grateful if you could share the reported inhibition for COc1cc2c(Oc3ccc4[nH]c(C)cc4c3F)ncnc2cc1OCCCN1CCCC1 .
Result: 5.6

Please find the next molecule below.
Problem: Could you share which inhibition value was measured for CNC(=O)c1ccccc1Sc1ccc2c(/C=C/c3ccccn3)n[nH]c2c1 ?
Result: 58.4

---

List of inhibition values.
target: MERTK (human) (UniProt Q12866); test: Caliper, Mobility shift assay off-chip; details: compound 0.02 µM
Sequence (Q12866 whole entry, looked up): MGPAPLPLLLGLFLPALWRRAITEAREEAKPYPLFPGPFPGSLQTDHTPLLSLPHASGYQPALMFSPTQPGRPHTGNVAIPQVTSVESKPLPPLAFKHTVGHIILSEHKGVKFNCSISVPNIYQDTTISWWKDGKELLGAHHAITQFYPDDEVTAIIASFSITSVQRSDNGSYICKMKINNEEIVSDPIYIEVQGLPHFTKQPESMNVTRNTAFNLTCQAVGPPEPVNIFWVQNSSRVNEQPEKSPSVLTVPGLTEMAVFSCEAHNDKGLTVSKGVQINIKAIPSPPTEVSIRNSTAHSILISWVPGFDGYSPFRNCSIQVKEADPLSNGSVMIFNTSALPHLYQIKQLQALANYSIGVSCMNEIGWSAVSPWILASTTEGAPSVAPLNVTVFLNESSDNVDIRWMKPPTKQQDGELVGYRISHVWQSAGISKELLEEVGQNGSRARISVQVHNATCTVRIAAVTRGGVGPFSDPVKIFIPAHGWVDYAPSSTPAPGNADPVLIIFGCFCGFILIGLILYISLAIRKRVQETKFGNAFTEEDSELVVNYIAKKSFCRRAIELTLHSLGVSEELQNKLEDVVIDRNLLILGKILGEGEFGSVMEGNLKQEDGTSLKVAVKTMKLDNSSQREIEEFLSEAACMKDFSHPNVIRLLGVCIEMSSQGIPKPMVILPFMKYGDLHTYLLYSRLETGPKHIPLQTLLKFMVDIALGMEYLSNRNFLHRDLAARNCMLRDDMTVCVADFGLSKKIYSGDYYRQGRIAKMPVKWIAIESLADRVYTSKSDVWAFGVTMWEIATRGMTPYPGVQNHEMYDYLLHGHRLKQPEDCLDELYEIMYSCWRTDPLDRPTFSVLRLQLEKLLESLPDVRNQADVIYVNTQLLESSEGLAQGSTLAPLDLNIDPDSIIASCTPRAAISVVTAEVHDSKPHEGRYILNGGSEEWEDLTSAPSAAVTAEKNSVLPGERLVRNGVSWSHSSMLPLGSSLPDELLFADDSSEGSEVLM
Just the number please, in %, no unit attached.

Problem: Find the recorded inhibition belonging to CNC(=O)c1cc(Oc2ccc(NC(=O)Nc3ccc(Cl)c(C(F)(F)F)c3)cc2)ccn1 and report it.
Result: -3.5

Problem: Form field: reported inhibition of CNC(=O)c1ccccc1Sc1ccc2c(/C=C/c3ccccn3)n[nH]c2c1
Result: 3.9

Problem: For the molecule shown here, COc1cc2c(Oc3ccc4[nH]c(C)cc4c3F)ncnc2cc1OCCCN1CCCC1 , give the reported inhibition.
Result: 3.6

Now, please, on to the next molecule.
Problem: Look up inhibition: Cc1ccc(Nc2nccc(N(C)c3ccc4c(C)n(C)nc4c3)n2)cc1S(N)(=O)=O
Result: 3

---

molecular target: UniProtKB O43781; assay: Caliper, Mobility shift assay off-chip; details: compound 0.2 µM
Sequence (O43781 whole entry, looked up): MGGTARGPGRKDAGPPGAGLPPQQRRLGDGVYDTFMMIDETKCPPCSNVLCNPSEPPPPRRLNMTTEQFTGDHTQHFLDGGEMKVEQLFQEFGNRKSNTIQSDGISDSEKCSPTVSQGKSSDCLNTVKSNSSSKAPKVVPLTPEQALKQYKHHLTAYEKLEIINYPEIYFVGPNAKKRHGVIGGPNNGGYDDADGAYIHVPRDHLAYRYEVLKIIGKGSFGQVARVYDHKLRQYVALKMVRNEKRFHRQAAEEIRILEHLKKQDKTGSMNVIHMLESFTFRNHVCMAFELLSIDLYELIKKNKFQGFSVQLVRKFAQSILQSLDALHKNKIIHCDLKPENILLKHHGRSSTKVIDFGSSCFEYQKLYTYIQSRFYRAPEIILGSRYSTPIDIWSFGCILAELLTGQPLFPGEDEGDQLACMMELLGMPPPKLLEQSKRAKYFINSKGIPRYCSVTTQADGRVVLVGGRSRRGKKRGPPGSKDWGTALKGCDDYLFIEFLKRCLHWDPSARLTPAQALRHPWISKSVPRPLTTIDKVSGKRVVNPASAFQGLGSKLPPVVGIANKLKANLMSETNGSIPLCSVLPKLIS
Let's look at some molecules and their measured inhibition.
Numeric only. Scale: %

Example entries and their recorded answers appear below.
Problem: GET /values?readout=inhibition&item= CNC(=O)c1cc(Oc2ccc(NC(=O)Nc3ccc(Cl)c(C(F)(F)F)c3)cc2)ccn1
Result: 2.1

Problem: Look up inhibition for this molecule: COc1cc2c(Oc3ccc4[nH]c(C)cc4c3F)ncnc2cc1OCCCN1CCCC1
Result: -7.9

Problem: Which inhibition is reported for this molecule? Cc1ccc(Nc2nccc(N(C)c3ccc4c(C)n(C)nc4c3)n2)cc1S(N)(=O)=O
Result: -1.4

Field: next molecule
Problem: Request the reported inhibition associated with CCN(CC)CCNC(=O)c1c(C)[nH]c(/C=C2\C(=O)Nc3ccc(F)cc32)c1C
Result: 24.4
